assay: Inhibition of Mycobacterium tuberculosis methionine aminopeptidase 1C using Met-AMC as substrate by Dixon method
// assign label 1 if Ki falls strictly below 30 µM, else label 0 (ties count as label 0)

Smiles	Group Label
Cc1c(C(=O)/C=C(\O)C(=O)N[C@H](C)C(=O)O)oc2ccc(Br)cc12	label 1
C[C@@H](NC(=O)c1cc(-c2ccc(Cl)cc2)no1)C(=O)O	label 0
COC(=O)[C@@H](C)NC(=O)c1cc(-c2ccc(Cl)cc2)no1	label 0
O=C(O)c1cc(-c2ccc(Cl)cc2)no1	label 0
COC(=O)[C@@H](C)NC(=O)/C(O)=C/C(=O)c1oc2ccc(Br)cc2c1C	label 1
Cc1ccccc1C(=O)/C=C(\O)C(=O)O	label 0
CCOC(=O)/C(O)=C/C(=O)c1ccc(Cl)cc1	label 0
Cc1c(C(=O)/C=C(\O)C(=O)O)oc2ccc(Br)cc12	label 1
CCOC(=O)/C(O)=C/C(=O)c1oc2ccc(Br)cc2c1C	label 1
CCOC(=O)c1cc(-c2ccc(Cl)cc2)no1	label 0
CCOC(=O)/C(O)=C/C(=O)c1ccccc1C	label 0
COC(=O)[C@@H](C)NC(=O)/C(O)=C/C(=O)c1ccccc1C	label 0
